assay.explanation: duplex melting temperature (HRM, EvaGreen); higher = more stable duplex
assay.context: duplex concentration 10 µM; backbone: PS-PO (listed strand fully phosphorothioate, complement phosphodiester)
// reported duplex melting temperature per item
# output: bare number, implied unit °C

Study these solved cases before continuing.
| construct.sequence | unit.info | duplex melting temperature |
| --- | --- | --- |
| CGATTTTGTCAAGCCT | °C | 59.7 |
| TTCGCGGTCTCCATTA | °C | 65.3 |
| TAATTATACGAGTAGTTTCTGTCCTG | °C | 66.6 |
| CACAGCGACATGTATGG | °C | 65.3 |
| GTGAAACAATGCTGTAG | °C | 60.4 |

Value of duplex melting temperature reported for the sequence `TTGAAAACCCATGTGC` is 61.5

duplex melting temperature measured on `GCCCGAGCATGACTGCG` = 71.9

Looking up `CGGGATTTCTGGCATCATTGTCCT` , I see its duplex melting temperature listed as 71.6

Reported duplex melting temperature of `CTCAGAGTAGAGCCGA` : 65.2

====

assay.explanation: duplex melting temperature (HRM, EvaGreen); higher = more stable duplex
assay.context: duplex concentration 7.5 µM; backbone: PS-PS (both strands fully phosphorothioate)
property: duplex melting temperature
# answer = value followed by unit

Worked set:
| construct.sequence | property | result |
| --- | --- | --- |
| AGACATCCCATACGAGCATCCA | duplex melting temperature | 63.6 °C |
| GGACGGCGTT | duplex melting temperature | 50.3 °C |
| CCCAGGCCTCGGATTTA | duplex melting temperature | 62.8 °C |
| TTCGCGGTCTCCATTA | duplex melting temperature | 59.6 °C |
| AGCTGAGCCTGCCGCC | duplex melting temperature | 67.4 °C |
| AGGAGTGAATGAAATGG | duplex melting temperature | 49.3 °C |
| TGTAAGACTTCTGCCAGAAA | duplex melting temperature | 57.5 °C |
| ACGGGTCGTTCCGTG | duplex melting temperature | 60 °C |
| TACTTCCAACGTAGG | duplex melting temperature | 48.3 °C |
| CTCGGAGGCCCCATTTA | duplex melting temperature | 62.6 °C |

Documented duplex melting temperature of `CTAAACTGTTATAGCCGG` : 52.6 °C

Sure, the documented duplex melting temperature for `CGATTTTGTCAAGCCT` is 51.5 °C

Value of measured duplex melting temperature for the entry `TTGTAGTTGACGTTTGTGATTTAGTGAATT` : 61 °C

The reported value for `AACGAATGTCAGCAATT` in terms of duplex melting temperature is 53.4 °C

Measured duplex melting temperature, `CTCAGAGTAGAGCCGA` : 56.7 °C

// sample `CCGCTCAGAGTAGAGA` , its duplex melting temperature was 55.9 °C

The sequence identified as `ACTCGCTCTACCTTAAT` registered its duplex melting temperature at 53.7 °C

Recorded result, `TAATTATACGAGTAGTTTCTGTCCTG` , duplex melting temperature: 58.4 °C

Looking up `GCGGTTGGTGGCCAAC` , I see its duplex melting temperature listed as 62.7 °C

sequence `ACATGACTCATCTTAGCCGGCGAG` , duplex melting temperature observed: 68.1 °C

What the record says about `GATGCCGCAGCGACCTG` : duplex melting temperature is 67.4 °C

Briefly, duplex melting temperature measured for `TGCCATGTTGAAAACC` : 49.8 °C

Looking up `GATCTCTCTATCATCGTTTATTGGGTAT` , I see its duplex melting temperature listed as 59.3 °C

So for `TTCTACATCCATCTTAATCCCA` , the logged duplex melting temperature turned out to be 55.5 °C

// duplex melting temperature value for `CCACTAGCGGCGCCGTT` : 68.6 °C

According to the records, this sequence `GCTGTGAAACAATGTAG` displays duplex melting temperature of 48.3 °C

get_value(item= `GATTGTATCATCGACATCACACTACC` , readout=duplex melting temperature) returns 60.9 °C

Memo: `GAACTGCCACTACCAA` , reported duplex melting temperature: 55.8 °C

Looking up `GCCCGAGCATGACTGCG` , I found its duplex melting temperature recorded as 64.4 °C

Form field duplex melting temperature, entry `TCTACACCGCGA` : 49.8 °C

// provenance: the supplement of paper PMC9116672
